system: E13 (patient-derived glioblastoma stem cells of classical subtype); assay: surviving fraction (nuclei count normalised to DMSO); higher = more cells surviving (less toxic); settings: 4.1 nM; exposure time: 72 h
Threshold rule: surviving fraction greater than or equal to 1 is Criterion met; below that, Criterion not met.

Confirm if surviving fraction reported for the compound Cc1c2ccncc2c(C)c2c1[nH]c1ccccc12 [Ellipticine] is 1 or above.
Criterion met

Confirm if surviving fraction reported for the compound CC(=O)OC[C@H]1O[C@@H]([S-])[C@H](OC(C)=O)[C@@H](OC(C)=O)[C@@H]1OC(C)=O.CCP(CC)CC.[Au+] [Auranofin] is 1 or above.
Criterion not met

###

tested on: E13; assay: phenotypic distance (Euclidean, principal components) from DMSO controls (arbitrary units); higher = stronger morphological change; details: 37 nM; exposure time: 72 h
Counter-ions that a name gives are not always drawn.
Task for the reader: assign each of the following compounds its reported phenotypic distance.
Reply briefly: the number, and no unit.

So for CCC(C)n1ncn(-c2ccc(N3CCN(c4ccc(OCC5COC(Cn6cncn6)(c6ccc(Cl)cc6Cl)O5)cc4)CC3)cc2)c1=O (stereo not drawn) [Itraconazole] , the logged phenotypic distance turned out to be 1.03

So for O=C1CCc2cc(OCCCCc3nnnn3C3CCCCC3)ccc2N1 [Cilostazol] , the logged phenotypic distance turned out to be 1.06

So for CC(C)C[C@H](NC(=O)CNC(=O)c1cc(Cl)ccc1Cl)B(O)O [Ixazomib] , the logged phenotypic distance turned out to be 17.4

So for O=C1CC[C@@H](C(=O)N2CSC[C@H]2C(=O)O)N1 [Pidotimod] , the logged phenotypic distance turned out to be 0.672

So for COc1cc2c[n+](C)c3c4cc5c(cc4ccc3c2cc1OC)OCO5 [Nitidine chloride] , the logged phenotypic distance turned out to be 0.78

So for CCC(C)(C)c1ccc(CC(C)CN2C[C@@H](C)O[C@@H](C)C2)cc1 (stereo partly drawn) [Amorolfine hydrochloride] , the logged phenotypic distance turned out to be 0.708

So for CC(=O)[C@]1(O)Cc2c(O)c3c(c(O)c2[C@@H](O[C@H]2C[C@H](N)[C@H](O)[C@H](C)O2)C1)C(=O)c1ccccc1C3=O [Idarubicin] , the logged phenotypic distance turned out to be 6.27

So for Cn1ncnc1[C@H]1c2n[nH]c(=O)c3cc(F)cc(c23)N[C@@H]1c1ccc(F)cc1 [Talazoparib] , the logged phenotypic distance turned out to be 2.08

Where do the numbers come from? From the supplement of paper PMC13207355.
